# protocol summary: Toxicity liver stage against HepG2, at 10uM
# Assay type: cell-based
# Set-up: test concentration 10 uM, cell line HepG2-A16-CD81EGFP
# particulars: human, HepG2-A16-CD81EGFP cells; read-out: INHIBITION
readout: cytotoxicity at 10 µM (%)
Value expressed in %; do not type the unit.

Query: GET /values?readout=cytotoxicity at 10 µM&item= `CCC1=N[C@@]2(CC[C@@H]3CN(C(=O)Nc4ccccc4)C[C@@H]32)C(=O)N1CC`
Reply: 2.93

Query: And Cc1cc(C(=O)CN(Cc2cccnc2)CC2CCCO2)c(C)[nH]1 (stereo unspecified) ?
Reply: -1.26

Query: And `O=C(Nc1ccc(CC(=O)N2CCSCC2)cc1)NC1CC1` ?
Reply: -2.42

Query: And COC(=O)CCC(=O)NC1CCCc2cc(OC(F)F)ccc21 (stereo unspecified) ?
Reply: -4.52

Query: And `CC(C)CNC(=O)CN(CC(=O)NCC(C)C)S(C)(=O)=O` ?
Reply: -12.2

Query: And `CC(C)COC(=O)N1CCCN(Cc2nnc(C(C)(C)C)o2)CC1` ?
Reply: 11.1

====

# protocol summary: Toxicity liver stage against HepG2, at 10uM
# Assay type: cell-based
# Set-up: test concentration 10 uM, cell line HepG2-A16-CD81EGFP
# particulars: human, HepG2-A16-CD81EGFP cells; read-out: INHIBITION
readout: cytotoxicity at 10 µM (%)
Value expressed in %; do not type the unit.

Query: GET /values?readout=cytotoxicity at 10 µM&item= CC(C)NC(=O)N1CCN(S(C)(=O)=O)CC2(CNC(=O)C2)C1 (stereo unspecified)
Reply: 8.71

Query: And CCC(=O)c1ccc(OCC(=O)NCC2CCCO2)cc1 (stereo unspecified) ?
Reply: -52.1

Query: And CCN1CC(COc2ccc(OC)cc2)Oc2ccncc2S1(=O)=O (stereo unspecified) ?
Reply: -7.6

Query: And `C[C@@H]1CN(Cc2nnc(-c3cccnc3)o2)CC[C@]1(C)O` ?
Reply: 10.1

Query: And `COc1cccc(-c2ccnc3nc(N4CCCCC4)[nH]c(=O)c23)c1` ?
Reply: 7.97

Query: And `Cn1cccc1C(=O)N1C[C@H]2CN(Cc3cccnc3)C[C@H]2C1` ?
Reply: 3.94

====

Please respond with reported cytotoxicity at 10 µM for every item in the list.
# protocol summary: Toxicity liver stage against HepG2, at 10uM
# Format: cell-based
# Set-up: test concentration 10 uM, cell line HepG2-A16-CD81EGFP
# particulars: human, HepG2-A16-CD81EGFP cells; read-out: INHIBITION
Value expressed in %; do not type the unit.

Query: GET /values?readout=cytotoxicity at 10 µM&item= `O=C([C@H]1COC[C@H]2CN(CC3CCCC3)C[C@H]21)N1CCOCC1`
Reply: 20.5

Query: And CCc1noc(CS(=O)(=O)CC(=O)N2c3ccccc3CC2C)n1 (centres undefined) ?
Reply: 7.07

Query: And Cc1ccc2ncnc(N3CCOCC3c3c(C)nn(C)c3C)c2c1 (centres undefined) ?
Reply: 12.2

Query: And O=C(CN1CCOC(Cn2cccn2)C1)NC1CCN(C2CC2)CC1 (centres undefined) ?
Reply: 1.1

Query: And `Cc1nccc(CN2CC[C@@]3(CCCN3Cc3ccccc3)[C@@H](O)C2)n1` ?
Reply: -6.05

Query: And `O=C(CN(C1=NCCCC1)c1ccccc1)c1ccc2c(c1)OCCO2` ?
Reply: 8.9

Query: And Cn1ncc2c1NC(=O)CC2c1ccccc1Cl (centres undefined) ?
Reply: 55.7

Query: And `COc1cc(OC)cc(-c2cc(CN)nc3ccnn23)c1` ?
Reply: -0.945

Query: And CCc1nc(CNc2cc(Cl)ccc2OCC2CCCO2)no1 (centres undefined) ?
Reply: 8.84

Query: And `O=C(O)[C@H]1C[C@@H](C(=O)NCc2ccncc2)CN(Cc2ccccc2)C1` ?
Reply: -138

Query: And Cn1cc(CN2CCOCC3(C2)CN(c2ccccc2)C(=O)CO3)cn1 (centres undefined) ?
Reply: 0.436

Query: And `CCc1cnc(C)nc1NCCC(=O)N1CCC(C)CC1` ?
Reply: -0.384

Query: And `CCc1c(C)sc2nc3n(CCN4CCOCC4)nc(SC)n3c(=O)c12` ?
Reply: 1.09

Query: And `CCn1c(N)nc2cc(C(=O)NCCc3ccccc3C)cnc21` ?
Reply: -10.8

Query: And `CCOC1CC2(CCN(Cc3nccn3C)CC2)C1` ?
Reply: -144

Query: And Cc1cc(C(=O)NC(C)Cc2ccc(N(C)C)cc2)n(C)n1 (centres undefined) ?
Reply: 1.19

Query: And Cc1nnsc1C(=O)NCc1cccnc1N1CCCC(O)C1 (centres undefined) ?
Reply: 1.91

Query: And CC(NC(=O)NCc1ccccn1)c1cccs1 (centres undefined) ?
Reply: -14.4

Query: And c1csc(-c2noc(CCCNC3CCc4ncnn4C3)n2)c1 (centres undefined) ?
Reply: -1.36

Query: And CC(C)(C)c1oc(C(N)=O)cc1CN1CCCCC1CN1CCOCC1 (centres undefined) ?
Reply: -11.2

Query: And `CCOC(=O)N1CCCn2nc(C(=O)NCCN(C)C)cc2C1` ?
Reply: 3.13

Query: And CCc1ocnc1C(=O)N1CCOC(c2nc(C)n[nH]2)C1 (centres undefined) ?
Reply: -12

Query: And Cc1ccnc(C2CCCN2C(=O)CN(C)C)n1 (centres undefined) ?
Reply: -19.1

Query: And CN(C)C(=O)CN1CCC2(CCCN(Cc3cccnc3)C2)C1=O (centres undefined) ?
Reply: -103
